observationType: melting point

- compound: "O=S(=O)(Nc1ccc(Cl)nc1I)c1ccccc1"
  melting point: "132 °C"

Data request: Which melting point value belongs to `CCCCOc1cc([N+](=O)[O-])c(OCCCC)cc1N=NN1CCOCC1` ?
Data returned: 79 to 81 °C

Data request: Likewise for `FC(F)(F)c1cc(Cl)c(-n2cc(I)nn2)c(Cl)c1` ?
Data returned: 194 to 195 °C

Data request: Likewise for CCN(CC)C1=NC(NC(=O)CCCCc2ccccc2)C(=O)N(C)c2ccccc21 (stereo unspecified) ?
Data returned: 134 to 135 °C

Data request: Likewise for `O=c1c2c(Cc3ccccc3)n[nH]c2c2cccnc2n1-c1ccc(O)cc1` ?
Data returned: > 320 °C

Data request: Likewise for `Clc1ccc(Nc2nnc(NCc3ccncc3)c3ccccc23)cc1` ?
Data returned: 233 to 236 °C

Data request: Likewise for CCOC(=O)C1=C(C)NC(C)=C([N+](=O)[O-])C1c1cccc(Cl)c1 (stereo unspecified) ?
Data returned: 168 °C

* * *

observationType: melting point

- molecule: "CC(=Cc1c2n(c3ccncc13)CCC2)[N+](=O)[O-]"
  observationType: "melting point"
  recordedValue: "141 to 142 °C"
- molecule: "O=C(c1cc(Cl)cc(Cl)c1)c1cc(Cl)cc(Cl)c1"
  observationType: "melting point"
  recordedValue: "157 °C"

Data request: Which melting point value belongs to `COc1ccc(NC(=O)c2ccc(Br)o2)cc1N1CCN(C)CC1` ?
Data returned: 125 to 127 °C

* * *

observationType: melting point

- compound: "CCCc1nc(N)c(C(=O)OCC)[nH]1"
  melting point: "111 to 114 °C"
- compound: "O=C(O)c1cn(CC2CC2)c2cc(Cl)ccc12"
  melting point: "219 to 220 °C"
- compound: "COc1ccc(CCN(C)C)c2[nH]c(=S)[nH]c12"
  melting point: "213 to 216 °C"
- compound: "COc1ccc2oc(N)c(C(N)=O)c(=O)c2c1"
  melting point: "270 °C"
- compound: "CCOP(=O)(OCC)c1ccc(NC(=O)CCc2oc(-c3ccccc3)nc2-c2ccc(Cl)cc2)cc1"
  melting point: "139 to 140 °C"
- compound: "CCCCCCCCCCCCCCOC(=O)NO"
  melting point: "64 to 66 °C"

Data request: Which melting point value belongs to `OCCCOc1ccc(-c2ccccc2)cc1` ?
Data returned: 123 to 124 °C

Data request: Likewise for `O=c1cc(SCc2ccc(O)cc2)oc2cc(O)cc(O)c12` ?
Data returned: 222 to 225 °C

Data request: Likewise for COC(=O)[C@@H]1NC(=O)[C@@H]1NC(=O)OC(C)(C)C (relative stereo) ?
Data returned: 140 to 144 °C

Data request: Likewise for `NS(=O)(=O)c1ccccc1C(=O)c1cccs1` ?
Data returned: 122 to 125 °C

Data request: Likewise for `COc1nc(C(F)(F)F)cc(=O)n1-c1cc(OC(C)=O)c(Cl)cc1F` ?
Data returned: 110 to 112 °C

* * *

observationType: melting point

- compound: "CCOCC1=C(C(=O)OCC)C(c2cccc(C#N)c2)C(C(=O)OCC)=C(CC)N1 (stereo unspecified)"
  recordedValue: "125 °C"

Data request: Which melting point value belongs to `Clc1nc(NCc2ccc3c(c2)OCO3)c2c3c(sc2n1)CCCC3` ?
Data returned: 222 °C

Data request: Likewise for CC(=O)Nc1ccc(C#Cc2ccc(OC3CN4CCC3CC4)nn2)cc1 (stereo unspecified) ?
Data returned: 170 to 175 °C

Data request: Likewise for `CCOC(=O)c1ncc(-c2ccc(Br)cc2)o1` ?
Data returned: 120 to 122 °C

Data request: Likewise for `CCCn1c(C)nn(-c2ccc(N)cc2)c1=O` ?
Data returned: 139 °C

Data request: Likewise for `CC(=O)Nc1c(C)cc(O)c(C)c1C` ?
Data returned: 189 to 190 °C

Data request: Likewise for c1ccc2c(c1)Cn1cccc1C1CNCCN21 (stereo unspecified) ?
Data returned: 56 to 58 °C

Data request: Likewise for `CCCc1ncnc(O)c1Cc1ccc(-c2ccccc2C#N)cc1` ?
Data returned: 158 °C

Data request: Likewise for `CCONC(=O)COc1cccc2c1c(C(=O)C(N)=O)c(CC)n2Cc1ccccc1` ?
Data returned: 176 to 178 °C

Data request: Likewise for `CCCCCCN(CCCCCC)c1c(N[C@@H](Cc2cn(Cc3ccccc3)cn2)C(=O)O)c(=O)c1=O` ?
Data returned: 75 to 80 °C

Data request: Likewise for `CC(C)n1nc(-c2c(-c3ccccc3)nn3ccc(OCc4ccccn4)cc23)ccc1=O` ?
Data returned: 150 to 151 °C

* * *

observationType: melting point

Known results for molecules:
- molecule: "CN1CN(C(=O)c2c(F)cccc2F)C(=O)N(c2ccc(SC(F)(F)F)cc2F)C1"
  melting point: "92 to 94 °C"
- molecule: "O=C(O)C(Oc1ccccc1)C(=O)NCC1CCN(c2ccncc2)CC1 (stereo not given)"
  melting point: "84 to 86 °C"
- molecule: "Cc1cc(=O)oc2cc(NC(=O)C3C(=O)c4ccccc4S(=O)(=O)N3C)ccc12 (stereo not given)"
  melting point: "> 285 °C"

Data request: Which melting point value belongs to `CCOC(=O)c1ccc(/C=C(\C)c2ccc3c(c2)CCCCO3)cc1` ?
Data returned: 60 to 61 °C

Data request: Likewise for `CCC(CC)(CO)CCCS(=O)(=O)N=CN(C)C` ?
Data returned: 87 to 88 °C

Data request: Likewise for `CCOCc1nc2c(N)nc3ccccc3c2n1CC1(N)CCOCC1` ?
Data returned: 53 to 63 °C

Data request: Likewise for `O=C(c1ccccn1)c1cc(Br)ccc1-n1cnnc1CCl` ?
Data returned: 147 to 149 °C

Data request: Likewise for `CN(C)c1ccc([N+](=O)[O-])cc1C#N` ?
Data returned: 109 to 110 °C

Data request: Likewise for CC(=O)Nc1ncnc2c1ncn2[C@@H]1C[C@H](OC(C)=O)[C@@H](O)[C@H]1O (racemic) ?
Data returned: 193 to 195 °C

Data request: Likewise for `CC(C)c1ccc(O)c(C(C)C)c1NC(=O)CN1CCN(CCSc2nc3cccc(C(F)(F)F)c3o2)CC1` ?
Data returned: 82 to 84 °C

Data request: Likewise for CCCNC(=O)c1ccc2c(c1)C(=O)NC(C(Cl)(Cl)Cl)O2 (stereo not given) ?
Data returned: 228 to 230 °C

Data request: Likewise for CCCCN1C(=O)NC(Cc2ccc(C)s2)C1=O (stereo not given) ?
Data returned: 107 °C

Data request: Likewise for `O=[N+]([O-])c1ccccc1Cc1n[nH]c(S)n1` ?
Data returned: 239 to 241 °C

Data request: Likewise for CCCCC(NC(=O)C(CC(C)C)NC(=O)c1cccc2ccccc12)C(=O)CSCc1ccco1 (stereo not given) ?
Data returned: 81 to 83 °C

Data request: Likewise for `CNC(=O)c1cccc(Nc2nc(Nc3ccc4c(c3)C(C)(C)CCC(=O)N4)ncc2Cl)c1` ?
Data returned: 184 °C

Data request: Likewise for `COc1ccccc1OCCOS(C)(=O)=O` ?
Data returned: 73 to 76 °C

* * *

# Lookup of reported melting point keyed by entry

Data request: Which melting point value belongs to `c1ccc(COc2ccc3[nH]c(-c4ccccc4)cc3c2)cc1` ?
Data returned: 168 to 170 °C

Data request: Likewise for `Clc1ncc(Br)n2nc(SCc3ccccc3)nc12` ?
Data returned: 109 to 110 °C

Data request: Likewise for `COCc1nc2c(N)nc3ccccc3c2n1CC(C)(C)OCCS(C)(=O)=O` ?
Data returned: 186 to 189 °C

* * *

observationType: melting point

- molecule: "CNC(=O)C(=O)c1cc(Cl)cc(C)c1NC(=O)c1cc(Br)nn1-c1ncccc1Cl"
  observationType: "melting point"
  recordedValue: "246 to 247 °C"
- molecule: "CCCCCCCCCCCCCCCCCNC(=O)OCCSCCOC(=O)N(Cc1ccccn1)C(C)=O"
  observationType: "melting point"
  recordedValue: "62 to 63 °C"
- molecule: "CN(C)c1nnc(NN)c(=O)[nH]1"
  observationType: "melting point"
  recordedValue: "264 to 266 °C"

Data request: Which melting point value belongs to `COc1cccc(CN2CCc3cc(OCc4ccccc4)c(OC)cc3C2)c1` ?
Data returned: 71 to 72 °C

Data request: Likewise for `COc1cc(OCCCN2CCC[C@H]2C)ccc1-c1ccc(=O)[nH]n1` ?
Data returned: 182 to 186 °C

Data request: Likewise for `CC(C)(C)N=NC(C)(C)SC#N` ?
Data returned: 29 to 31 °C

Data request: Likewise for `CCOC(=O)CCCCSc1nc(-c2ccccc2)c(-c2ccccc2)[nH]1` ?
Data returned: 87 to 89 °C

Data request: Likewise for `Cc1nnc(OC(=O)NC(C)(C)C)n1-c1ccc(Cl)cn1` ?
Data returned: 132 to 134 °C

Data request: Likewise for `CN(C)c1nc(=O)c2cccnc2n1Cc1ccc(F)cc1` ?
Data returned: 167 to 170 °C
